# assayedSystem: TSLP, Q969D9
# methodDescription: Kd (SPR)
measurementType: pKd
# pKd is unitless: minus log10 of the molar concentration; print number only

stdin: Determine its reported pKd: unnamed (protein) chain 1: QMQLVESGGGVVQPGRSLRLSCAASGFTFSTYAMHWVRQAPGKGLEWVAVIWYDGSNKHYADSVKGRFTITRDNSKNTLNLQMNSLRAEDTAVYYCARAPRYDEYVEAFDVWGQGTMVTVSS chain 2: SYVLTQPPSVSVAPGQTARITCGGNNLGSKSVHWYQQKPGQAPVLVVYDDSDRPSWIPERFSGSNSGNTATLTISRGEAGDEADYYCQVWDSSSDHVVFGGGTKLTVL
stdout: 6.71

Kindly consider the entry below.
stdin: Determine its reported pKd: unnamed (protein) chain 1: QMQLVESGGGVVQPGRSLRLSCAASGFTFRTYGMHWVRQAPGKGLEWVAVIWYDGSNKHYADSVKGRFTITRDNSKNTLNLQMNSLRAEDTAVYYCARSPRYDDYYEAFDVWGQGTMVTVSS chain 2: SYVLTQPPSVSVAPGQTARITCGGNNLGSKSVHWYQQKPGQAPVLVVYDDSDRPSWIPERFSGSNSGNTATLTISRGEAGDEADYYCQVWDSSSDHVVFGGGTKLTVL
stdout: 6.73
